Source: patent US20240116985A1

Subject Of Test: T1, B-cat-Halo (beta-catenin HaloTag NanoBRET construct expressed in HEK293 cells) (UniProt P35222 1-781, HaloTag NanoBRET 618 Ligand bound in the assay)
T1 sequence (looked up): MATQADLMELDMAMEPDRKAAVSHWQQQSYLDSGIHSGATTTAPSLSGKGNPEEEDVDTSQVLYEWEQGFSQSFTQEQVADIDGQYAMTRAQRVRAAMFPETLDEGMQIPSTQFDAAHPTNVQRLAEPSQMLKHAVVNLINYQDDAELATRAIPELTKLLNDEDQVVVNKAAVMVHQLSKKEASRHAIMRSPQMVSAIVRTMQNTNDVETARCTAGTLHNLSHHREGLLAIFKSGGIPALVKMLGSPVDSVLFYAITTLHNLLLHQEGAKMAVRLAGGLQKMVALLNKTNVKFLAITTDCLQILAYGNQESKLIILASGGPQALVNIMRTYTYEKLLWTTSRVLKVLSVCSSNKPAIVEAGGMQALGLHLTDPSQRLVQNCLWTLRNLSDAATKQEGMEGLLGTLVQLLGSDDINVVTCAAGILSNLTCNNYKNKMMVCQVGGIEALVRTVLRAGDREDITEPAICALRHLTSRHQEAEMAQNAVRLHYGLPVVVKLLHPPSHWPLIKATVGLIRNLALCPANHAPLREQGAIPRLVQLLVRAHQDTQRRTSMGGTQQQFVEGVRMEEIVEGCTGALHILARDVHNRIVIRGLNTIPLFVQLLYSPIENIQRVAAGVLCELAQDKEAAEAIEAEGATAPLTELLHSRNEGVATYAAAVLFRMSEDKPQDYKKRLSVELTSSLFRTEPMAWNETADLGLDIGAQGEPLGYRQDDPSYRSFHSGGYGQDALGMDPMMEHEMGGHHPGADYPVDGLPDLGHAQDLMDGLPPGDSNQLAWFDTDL
Assay Procedure: cell-based or functional assay
Starred links: 1 amine or outer side, 2 acyl side, 3 side chain; linkers in the order of their positions; H or OH if unused. Positions of bridges follow the written chain, without caps; N, C: chain ends. Non-standard residues stand in square brackets, D forms with d. Primed or numbered codes have the meaning given here. (4Pippip)GlnR = (S)-5-([1,4'-bipiperidin]-1'-yl)-2-amino-5-oxopentanoic acid (Gln side-chain amide with 4-piperidinopiperidine), O=C(CC[C@H](N[*:1])C(=O)[*:2])N1CCC(N2CCCCC2)CC1; (4MePpzPip)GlnR = (S)-2-amino-5-(4-(4-methylpiperazin-1-yl)piperidin-1-yl)-5-oxopentanoic acid, CN1CCN(C2CCN(C(=O)CC[C@H](N[*:1])C(=O)[*:2])CC2)CC1; (Me2NPrPip)GlnR = (S)-2-amino-5-(4-(3-(dimethylamino)propyl)piperazin-1-yl)-5-oxopentanoic acid, CN(C)CCCN1CCN(C(=O)CC[C@H](N[*:1])C(=O)[*:2])CC1; PyrS2″ = (S)-3-amino-1-((pent-4-en-1-yloxy)carbonyl)pyrrolidine-3-carboxylic acid (stapling residue), C=CCCCOC(=O)N1CC[C@@](N[*:1])(C(=O)[*:2])C1; (TfePpz)GlnR = (S)-2-amino-5-oxo-5-(4-(2,2,2-trifluoroethyl)piperazin-1-yl)pentanoic acid, O=C(CC[C@H](N[*:1])C(=O)[*:2])N1CCN(CC(F)(F)F)CC1; (RDMAPyr)GlnR = (S)-2-amino-5-((R)-3-(dimethylamino)pyrrolidin-1-yl)-5-oxopentanoic acid, CN(C)[C@@H]1CCN(C(=O)CC[C@H](N[*:1])C(=O)[*:2])C1; TfeGA = (S)-2-amino-3-((carboxymethyl)(2,2,2-trifluoroethyl)amino)propanoic acid, O=C([C@H](CN(CC(=O)[*:3])CC(F)(F)F)N[*:1])[*:2]; PyrS2 = (S)-3-amino-1-((pent-4-en-1-yloxy)carbonyl)pyrrolidine-3-carboxylic acid, C=CCCCOC(=O)N1CC[C@@](N[*:1])(C(=O)[*:2])C1; B5(19) = 2-amino-2-(pent-4-en-1-yl)hept-6-enoic acid (bis(4-pentenyl)glycine), C=CCCCC(CCCC=C)(N[*:1])C(=O)[*:2]; B5(3) = 2,2-bis(4-pentenyl)glycine (stitching residue), C=CCCCC(CCCC=C)(N[*:1])C(=O)[*:2]; Bta = N[C@@H](Cc1csc2ccccc12)C(=O)O; αAllylPro = C=CC[C@@]1(C(=O)O)CCCN1; tBuAla = CC(C)(C)C[C@H](N)C(=O)O; 3Thi = N[C@@H](Cc1ccsc1)C(=O)O; TfeGA″ = not defined here
Give measured NanoBRET Abs IC50 for each item. Keep answers brief.
Answer format: numeric, µM implied, no suffix.

**Q:** If you can, please state the reported NanoBRET Abs IC50 value of Ac-[αAllylPro]D[tBuAla][B5(3)]D[TfeGA]AAFL[PyrS2″][3Thi][Bta][(4Pippip)GlnR]-NH2 (staple 1-4, 4-11; not fully specified) [I-1797] .
**A:** 22.5

**Q:** What value of NanoBRET Abs IC50 has been reported for the following binder? Ac-[αAllylPro]D[tBuAla][B5(3)]D[TfeGA]AAFL[PyrS2″][3Thi][Bta][(4MePpzPip)GlnR]-NH2 (staple 1-4, 4-11; not fully specified) [I-1801]
**A:** 17.5

**Q:** What does the data say about its NanoBRET Abs IC50? Entry: Ac-[αAllylPro]D[tBuAla][B5(3)]D[TfeGA]AAFL[PyrS2″][3Thi][Bta][(RDMAPyr)GlnR]-NH2 (staple 1-4, 4-11; not fully specified) [I-1804]
**A:** 9.4

**Q:** Quick one: NanoBRET Abs IC50 for Ac-[αAllylPro]D[tBuAla][B5(3)]D[TfeGA″]AAFL[PyrS2″][3Thi][Bta][(Me2NPrPip)GlnR]-NH2 (staple 1-4, 4-11; not fully specified; reading uncertain) [I-1800] ?
**A:** 25.2

**Q:** So what's the measured NanoBRET Abs IC50 for this one? Ac-[αAllylPro]D[tBuAla][B5(3)]D[TfeGA″]AAFL[PyrS2″][3Thi][Bta][(4MePpzPip)GlnR]-NH2 (staple 1-4, 4-11; not fully specified; reading uncertain) [I-1802]
**A:** 25.2

**Q:** Entry under review: Ac-[αAllylPro]DL[B5(19)]DDAAFL[PyrS2]FWQ-NH2 (staple 1-4, 4-11, Stapled peptide; also called Ac-PL3-Asp-Leu-B5-Asp-Asp-Ala-Ala-Phe-Leu-PyrS2-Phe-Trp-Gln-NH2) [I-1811] . Reported NanoBRET Abs IC50?
**A:** 32.3

**Q:** Given the entry Ac-[αAllylPro]D[tBuAla][B5(3)]D[TfeGA]AAFL[PyrS2″][3Thi][Bta][(TfePpz)GlnR]-NH2 (staple 1-4, 4-11) [I-1803] , report its measured NanoBRET Abs IC50.
**A:** 7.4

**Q:** Name the recorded NanoBRET Abs IC50 for Ac-[αAllylPro]D[tBuAla][B5(3)]D[TfeGA]AAFL[PyrS2″][3Thi][Bta][(Me2NPrPip)GlnR]-NH2 (staple 1-4, 4-11; not fully specified) [I-1799] .
**A:** 25.8

**Q:** Bench note: what NanoBRET Abs IC50 did Ac-[αAllylPro]D[tBuAla][B5(3)]D[TfeGA]AAFL[PyrS2″][3Thi][Bta][(RDMAPyr)GlnR]-NH2 (staple 1-4, 4-11; not fully specified) [I-1805] show?
**A:** 9.3

**Q:** Which NanoBRET Abs IC50 is reported for this binder? Ac-[αAllylPro]D[tBuAla][B5(3)]DDAAFL[PyrS2″][3Thi][Bta]Q-NH2 (staple 1-4, 4-11; also: staple olefins reduced to -CH2-CH2-) [I-1808]
**A:** 14
